Tested on: NCI-H460
Assay: NCI tumour cell line growth inhibition, 48 h
Active and inactive are the calls of the source. Rule as the data show it: active = GI50 up to about 1.1 µM and inactive = higher.
Recorded GI50 for the following compounds

State the measured GI50 (NCI-H460) of `Nc1c2ccccc2nc2c1ccc1ncccc12`
5.83 µM (inactive)

State the measured GI50 (NCI-H460) of `O=c1cccccc1NCCNc1cccccc1=O`
> 100 µM (inactive)

State the measured GI50 (NCI-H460) of `CSC(=N)NNC(=O)CCC(=O)Nc1ccccc1C(F)(F)F`
> 100 µM (inactive)

***
State the measured GI50 (NCI-H460) of CC(C)C(NC(=O)C(Cc1ccccc1)NC(=O)[C@H]1CCC[C@H]1NC(=O)C(N)Cc1ccc(O)cc1)C(N)=O (stereo partly specified)
> 100 µM (inactive)

State the measured GI50 (NCI-H460) of `O=C(O)c1ccc(S(=O)(=O)c2ccccc2)c([N+](=O)[O-])c1`
> 100 µM (inactive)

State the measured GI50 (NCI-H460) of `Cc1ccc(-c2n[nH]c(=O)[nH]2)cc1`
> 100 µM (inactive)
